Let's look at some compounds and their measured pIC50.
target: human GluN1/GluN2B NMDA receptors (Homo sapiens, UniProt Q13224); experiment: Calcium flux (FLIPR) assay on cloned human NR1/GluN2B ion channels expressed in mammalian cells (standard and HTS variants); settings: cells expressing human GluN1/GluN2B, glutamate and glycine co-agonists
Sequence (Q13224 27-1484, other chains not shown): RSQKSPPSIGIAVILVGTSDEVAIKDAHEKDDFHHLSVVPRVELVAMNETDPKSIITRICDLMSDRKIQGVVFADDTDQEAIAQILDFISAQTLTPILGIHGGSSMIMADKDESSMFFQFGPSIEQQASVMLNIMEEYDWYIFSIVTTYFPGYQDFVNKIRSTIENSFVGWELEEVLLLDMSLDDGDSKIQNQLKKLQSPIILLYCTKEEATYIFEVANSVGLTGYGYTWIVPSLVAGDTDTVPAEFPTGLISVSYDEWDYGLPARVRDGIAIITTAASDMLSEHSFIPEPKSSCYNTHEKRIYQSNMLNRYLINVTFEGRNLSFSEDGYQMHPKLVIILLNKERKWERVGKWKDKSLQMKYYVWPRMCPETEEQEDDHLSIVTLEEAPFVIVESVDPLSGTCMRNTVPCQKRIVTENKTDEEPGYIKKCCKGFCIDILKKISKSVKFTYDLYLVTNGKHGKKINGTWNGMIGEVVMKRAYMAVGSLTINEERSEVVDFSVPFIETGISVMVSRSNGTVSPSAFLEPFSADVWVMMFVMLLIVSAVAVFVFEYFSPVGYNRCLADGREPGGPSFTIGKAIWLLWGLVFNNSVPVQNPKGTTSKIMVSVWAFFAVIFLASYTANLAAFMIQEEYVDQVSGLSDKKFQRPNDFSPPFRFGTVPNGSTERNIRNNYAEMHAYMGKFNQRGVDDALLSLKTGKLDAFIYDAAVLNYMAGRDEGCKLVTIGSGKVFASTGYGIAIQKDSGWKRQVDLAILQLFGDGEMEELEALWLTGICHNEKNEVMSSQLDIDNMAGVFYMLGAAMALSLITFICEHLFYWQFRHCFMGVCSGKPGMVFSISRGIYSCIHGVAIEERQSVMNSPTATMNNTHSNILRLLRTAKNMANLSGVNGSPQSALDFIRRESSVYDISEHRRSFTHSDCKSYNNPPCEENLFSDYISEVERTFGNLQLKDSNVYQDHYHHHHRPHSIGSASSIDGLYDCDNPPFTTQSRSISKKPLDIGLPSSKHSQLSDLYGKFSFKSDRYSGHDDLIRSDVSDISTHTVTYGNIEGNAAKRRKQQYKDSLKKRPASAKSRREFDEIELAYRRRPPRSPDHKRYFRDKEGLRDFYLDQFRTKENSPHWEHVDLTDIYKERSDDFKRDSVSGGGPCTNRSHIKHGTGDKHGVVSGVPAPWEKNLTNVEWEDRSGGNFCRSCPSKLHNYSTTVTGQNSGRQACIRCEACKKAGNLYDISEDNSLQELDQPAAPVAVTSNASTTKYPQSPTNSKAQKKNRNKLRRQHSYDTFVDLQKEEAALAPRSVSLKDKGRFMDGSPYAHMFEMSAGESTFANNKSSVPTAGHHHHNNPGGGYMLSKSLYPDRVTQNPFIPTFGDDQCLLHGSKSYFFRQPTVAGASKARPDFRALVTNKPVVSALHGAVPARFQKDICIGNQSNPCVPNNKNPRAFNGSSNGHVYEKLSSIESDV
Counter-ions that a name gives are not always drawn.
Interpret pIC50 as the negative base-10 log of the concentration measured in mol/L.

See these solved cases before continuing.
Q. # query: pIC50 of entry Cc1ncc(Cn2ncc3ncc(-c4cccc(C(F)(F)F)c4)cc32)cn1 [Example 4, trifluoroacetate salt]
A. 5.33

Q. Then Cc1cc(-c2cnc3cnn(Cc4cccnc4)c3c2)ccc1F ?
A. 7.64

Q. Then Cc1ccncc1Cn1ncc2ncc(-c3cccc(C(F)(F)F)c3)cc21 [Example 168, trifluoroacetate salt] ?
A. 6.79

Q. Then Fc1ccc(Cn2ncc3ncc(-c4ccc(F)c(C(F)F)c4)cc32)cn1 ?
A. 7.80

Q. Then Cc1cc(Cn2ncc3ncc(-c4ccc(F)c(C(F)F)c4)cc32)on1 ?
A. 7.66

Q. Then Fc1ccc(-c2cnc3cnn(Cc4nnc(C5CC5)s4)c3c2)cc1C(F)F ?
A. 6.91

Q. Then Cc1nc(Cn2ncc3ncc(-c4ccc(F)c(C(F)F)c4)cc32)cs1 ?
A. 6.33

Below: the item to evaluate.
Q. # query: pIC50 of entry FC(F)(F)c1cccc(-c2cnc3cnn(Cc4ccccc4)c3c2)c1 [Example 21, hydrochloride salt]
A. 5.48
